- Tested on: KM12 colon
- Protocol summary: NCI tumour cell line growth inhibition, 48 h; in the data active = GI50 below about 0.43 µM; inactive = the rest
Bench note: report the call from t (active), f (inactive)

Fill in: this test's call for Oc1ccccc1/C=N/Nc1ccc2ccccc2n1 is ___
f

----------
- System: RXF 393 renal
- Protocol summary: NCI tumour cell line growth inhibition, 48 h
Attribute measured: GI50

Here are 4 molecules together with their reported answers.
- Molecule: "CCCCCCCCCCCCCC(=S)NCCCC[C@H](NC(=O)OCc1ccccc1)C(=O)Nc1ccccc1"
  GI50: "5.91 µM"
- Molecule: "CC(=O)c1ccc(Nc2cc(-c3ccccc3)nc3c(O)cccc23)cc1"
  GI50: "17.4 µM"
- Molecule: "Fc1cccc(COc2ccc(Nc3ncncc3C#Cc3ccccc3)cc2Cl)c1"
  GI50: "> 25 µM"
- Molecule: "O=C(CSc1nc2ccc([N+](=O)[O-])cc2[nH]1)Nc1ccc(F)c(Cl)c1"
  GI50: "2.34 µM"

Kindly review the next molecule as well.
The value of GI50 recorded for C=C1CCC2C(/C=C(\C)CCC1O)OC(=O)C2C (stereo not given) when tested on RXF 393 renal reads 23.2 µM

----------
# TGI per entry
- System: HCT-15 colon
- Protocol summary: NCI tumour cell line growth inhibition, 48 h

Here are 6 compounds together with their reported answers.
- Compound: "C=CCN(CC=C)Cn1c(=S)sc2ccccc21"
  Test result: "> 100 µM"
- Compound: "c1ccc([P+](CCNCCNCC[P+](c2ccccc2)(c2ccccc2)c2ccccc2)(c2ccccc2)c2ccccc2)cc1"
  Test result: "> 100 µM"
- Compound: "CCCCCCCCCCCCCCCC(=O)NCC(COP(=O)([O-])OCC[N+](C)(C)C)OCC (centres undefined)"
  Test result: "19.3 µM"
- Compound: "O=c1[nH]c2nc3ccccc3c(=O)n2/c1=C/c1ccc(O)cc1"
  Test result: "> 100 µM"
- Compound: "COc1ccc(C(=S)N2CCN(c3cccc(Cl)c3)CC2)cc1"
  Test result: "> 100 µM"
- Compound: "CO[C@@H](C(=O)OC1C=CC2(CC1)C(=O)N(C)c1ccccc12)c1ccccc1 (some centres undefined)"
  Test result: "> 100 µM"

The value of TGI recorded for N#Cc1c(NC(=S)NC(=O)c2ccccc2)nc2c(c1-c1ccccc1)CCC2 when tested on HCT-15 colon reads > 100 µM

The value of TGI recorded for COc1ccc(Nc2c(C#N)c3n(c4ccccc24)c2ccccc2[n+]3C)cc1OC when tested on HCT-15 colon reads 6.5 µM

The value of TGI recorded for N#CC1=C(N)OC2=C(CSc3ccccc32)C1c1ccc(Br)cc1 (centres undefined) when tested on HCT-15 colon reads 24.5 µM

----------
# GI50 per entry
- Tested on: A549 NSCLC
- Protocol summary: NCI tumour cell line growth inhibition, 48 h

- Molecule: "Cc1nn(-c2ccc(S(=O)(=O)[O-])cc2)c([O-])c1N=[N+](C)c1ccc(-c2ccc(N=Nc3ccc4c(S(=O)(=O)[O-])cc(S(=O)(=O)[O-])c(N)c4c3[O-])c([O-])c2)cc1[O-].[Cu+2].[Cu+2].[Na+]"
  Measured target: "A549 NSCLC"
  GI50: "> 100000 nM"
- Molecule: "NC(CO)Cc1cnc[nH]1 (stereo not given)"
  Measured target: "A549 NSCLC"
  GI50: "> 100000 nM"
- Molecule: "C#Cc1cnc(=O)n(C2CC(O)C(CO)O2)c1 (stereo not given)"
  Measured target: "A549 NSCLC"
  GI50: "> 100000 nM"

The molecule listed as COc1c(C2CC(=O)Nc3c2cnn3Cc2ccco2)cc2c(c1OC)OCO2 (stereo not given) shows GI50 equal to 610 nM

The molecule listed as O=C(NNc1nc2c(F)cccc2n2cccc12)c1cnccn1 shows GI50 equal to 466 nM
